# inhibition at 10 µM annotations
tested on: MDA-MB-231 (breast cancer); test: Antiproliferative activity (CCK-8 cell viability), MDA-MB-231; format: cell-based; conditions: Homo sapiens, Compound concentration: 10 μM, 72 h, read-out: Antiproliferative activity in cancerous cells, MDA-MB-231 (inhibition of cell growth)

COMPOUND | TARGET_DESC | inhibition at 10 µM
CC1=C(CC(=O)O)c2ccc(F)c(F)c2/C1=C/c1cccc(Oc2ccccc2)c1 | MDA-MB-231 (breast cancer) | 30 to 50%
CC1=C(CC(=O)O)c2ccc(F)cc2/C1=C\c1ccc(Oc2ccc(F)cc2)cc1 | MDA-MB-231 (breast cancer) | 30 to 50%
CC1=C(CC(O)CO)c2ccccc2/C1=C\c1ccc(Oc2ccc(F)cc2)cc1 (centres unmarked) | MDA-MB-231 (breast cancer) | ≥ 50%
COc1ccc(CCCc2ccc(/C=C3/C(C)=C(CC(=O)O)c4cc(F)ccc43)cc2)cc1 | MDA-MB-231 (breast cancer) | ≥ 50%
CC1=C(CC(=O)O)c2cc(F)ccc2/C1=C\c1ccc(Oc2ccc(Cl)cc2)cc1Cl | MDA-MB-231 (breast cancer) | < 30%

====

tested on: A549 (lung adenocarcinoma); assay: Antiproliferative activity (CCK-8 cell viability), A549; assay type: cell-based; conditions: Homo sapiens, Compound concentration: 10 μM, 72 h, read-out: Antiproliferative activity in cancerous cells, A549 (inhibition of cell growth)
# inhibition at 10 µM annotations

COMPOUND | TARGET_DESC | inhibition at 10 µM
CC1=C(CC(=O)O)c2cc(F)ccc2/C1=C\c1ccc(COCc2ccc(Cl)cc2)cc1 [B103] | A549 (lung adenocarcinoma) | ≥ 50%
COc1ccc(/C=C2/C(Cc3ccc(Oc4ccc(F)cc4)cc3)=C(CC(=O)O)c3cc(F)ccc32)cc1 [A110] | A549 (lung adenocarcinoma) | ≥ 50%
CC1=C(CC(=O)O)c2cc(F)ccc2/C1=C\c1ccc(CSc2ccc(F)cc2)cc1 [B45] | A549 (lung adenocarcinoma) | < 30%
CC1=C(CC(=O)O)c2cc(Cl)ccc2/C1=C\c1ccc(COc2ccc(F)cc2)cc1 [B57] | A549 (lung adenocarcinoma) | < 30%
CC1=C(CC(=O)O)c2cc(F)ccc2/C1=C\c1ccc(COCc2ccc(C(F)(F)F)cc2)cc1 [B111] | A549 (lung adenocarcinoma) | ≥ 50%
CCCC1=C(CC(=O)O)c2cc(F)ccc2/C1=C\c1ccc(COc2ccccc2)cc1 [A4] | A549 (lung adenocarcinoma) | ≥ 50%
CC1=C(CC(=O)O)c2cc(F)ccc2/C1=C\c1ccc(Oc2ccc(Cl)cc2)cc1Cl [C59] | A549 (lung adenocarcinoma) | ≥ 50%
CC1=C(CC(=O)O)c2ccc(F)c(F)c2/C1=C\c1cccc(Oc2ccccc2)c1 [C23] | A549 (lung adenocarcinoma) | < 30%

====

# inhibition at 10 µM annotations
tested on: MDA-MB-231 (breast cancer); assay: Antiproliferative activity (CCK-8 cell viability), MDA-MB-231; format: cell-based; settings: Homo sapiens, Compound concentration: 10 μM, 72 h, read-out: Antiproliferative activity in cancerous cells, MDA-MB-231 (inhibition of cell growth)

COMPOUND_STRING | inhibition at 10 µM
CCCC1=C(CC(=O)O)c2cc(F)ccc2/C1=C\c1cccc(COc2ccccc2)c1 | ≥ 50%
COc1ccc(Oc2ccc(/C=C3/C(C)=C(CC(=O)O)c4cc(Cl)ccc43)cc2)cc1 | ≥ 50%
COc1ccc2c(c1)C(CC(=O)O)=C(C)/C2=C/c1ccc(Oc2ccc(Cl)cc2)cc1C | ≥ 50%
CC1=C(CC(=O)O)c2cc(Br)ccc2/C1=C\c1ccc(Oc2ccc(F)cc2)cc1 | < 30%
CC1=C(CC(=O)O)c2cc(I)ccc2/C1=C\c1ccc(COCc2ccc(F)cc2)cc1 | ≥ 50%
CC1=C(CC(=O)O)c2cc(C)ccc2/C1=C\c1ccc(COc2ccc(C(F)(F)F)cc2)cc1 | < 30%
O=C(O)CC1=C(CC2CCCC2)/C(=C/c2cccc(Oc3ccccc3)c2)c2ccc(F)cc21 | ≥ 50%
O=C(O)CC1=C/C(=C/c2cccc(Oc3ccccc3)c2)c2cc(OCC(F)(F)F)ccc21 | ≥ 50%
CC1=C(CC(=O)O)c2cc(F)ccc2/C1=C\c1ccc(COCc2ccc(F)cc2)cc1 | ≥ 50%
CC1=C(CC(=O)O)c2ccc(F)c(F)c2/C1=C/c1ccc(Oc2ccc(F)cc2)cc1 | ≥ 50%
COc1ccc(CCCc2ccc(/C=C3/C(C)=C(CC(=O)O)c4cc(Cl)ccc43)cc2)cc1 | ≥ 50%
CC1=C(CC(=O)O)c2cc(Cl)ccc2/C1=C\c1cccc(Oc2ccc(O)cc2)c1 | ≥ 50%
CC1=C(CC(=O)O)c2cc(F)ccc2/C1=C\c1ccc(CCOc2ccccc2)cc1 | < 30%
CC1=C(CC(=O)O)c2cc(F)ccc2/C1=C\c1cccc(CNc2ccccc2)c1 | 30 to 50%
CC1=C(CC(=O)O)c2cc(F)ccc2/C1=C/c1ccc(Oc2ccc(F)cc2Cl)cc1 | < 30%
C=CC1=C(CC(=O)O)c2ccccc2/C1=C\c1ccc(Oc2ccc(F)cc2)cc1 | ≥ 50%
CC1=C(CC(=O)O)c2cc(F)c(F)cc2/C1=C/c1ccc(Oc2ccc(F)cc2)cc1 | ≥ 50%
CC1=C(CC(=O)O)c2cc(F)ccc2/C1=C\c1cccc(Oc2ccc(I)cc2)c1 | < 30%
